# Tested on: carrageenan-induced edema
# Run description: Inhibitory effect on carrageenan-induced edema
# Assay type: in vivo, Wistar male rats
# Test conditions: Rattus norvegicus, po, 1 h, read-out: ED50 p.o.
Answer each item with its documented ED50.
Answers are plain numbers, in mg/kg.

{"Compound": "CCC(=O)OCCOC(=O)C(C)c1ccc(-c2ccccc2)c(F)c1 (stereo not drawn) [Compound No. 9]", "Unit string": "mg/kg", "Result number": 0.7}
{"Compound": "CC=CC=CC(=O)OCCOC(=O)C(C)c1ccc(-c2ccccc2)c(F)c1 (stereo not drawn) [Compound No. 12]", "Unit string": "mg/kg", "Result number": 0.9}

query: Supply reported ED50 belonging to this compound: CC(C)C(=O)OCOC(=O)C(C)c1ccc(-c2ccccc2)c(F)c1 (stereo not drawn) [Compound No. 3]
result: 0.6

###

# Run description: Acute toxicity
# Parameters: species or system male SLC-ddY mice
# Test conditions: mouse, in vivo, po, Table 5; mice, orally, observation for 2 weeks
Answer each item with its documented LD50 at 336 h.
Answers are plain numbers, in mg/kg.

{"Compound": "CC(C)C(=O)OCOC(=O)C(C)c1ccc(-c2ccccc2)c(F)c1 (stereo not shown) [Compound No. 3]", "Unit string": "mg/kg", "LD50 at 336 h": 600}
{"Compound": "C/C=C/C(=O)OCCOC(=O)C(C)c1ccc(-c2ccccc2)c(F)c1 (stereo not shown) [Compound No. 10]", "Unit string": "mg/kg", "LD50 at 336 h": 800}
{"Compound": "COc1ccc2c(c1)c(CC(=O)OCC(=O)O)c(C)n2C(=O)c1ccc(Cl)cc1 [acemethacin, reference compound]", "Unit string": "mg/kg", "LD50 at 336 h": 18}
{"Compound": "CCC(=O)OCCOC(=O)C(C)c1ccc(-c2ccccc2)c(F)c1 (stereo not shown) [Compound No. 9]", "Unit string": "mg/kg", "LD50 at 336 h": 700}
{"Compound": "CC(=O)OCCOC(=O)C(C)c1ccc(-c2ccccc2)c(F)c1 (stereo not shown) [Compound No. 8]", "Unit string": "mg/kg", "LD50 at 336 h": 650}
{"Compound": "CC(C(=O)O)c1ccc(-c2ccccc2)c(F)c1 (stereo not shown) [FP, 2-(2-fluoro-4-biphenylyl)propionic acid, reference compound]", "Unit string": "mg/kg", "LD50 at 336 h": 440}

// for each compound in input: emit LD50 at 336 h
1. C/C=C/C(=O)OCOC(=O)C(C)c1ccc(-c2ccccc2)c(F)c1 (stereo not shown) [Compound No. 4]
2. CC(C)=CC(=O)OCCOC(=O)C(C)c1ccc(-c2ccccc2)c(F)c1 (stereo not shown) [Compound No. 11]
3. COc1ccc2c(c1)c(CC(=O)O)c(C)n2C(=O)c1ccc(Cl)cc1 [indomethacin, reference compound]

result:
1: 600; 2: 880; 3: 14
